# Measurement target: Solute carrier family 22 member 6 (Homo sapiens, UniProt Q4U2R8)
# Sequence (Q4U2R8 whole entry): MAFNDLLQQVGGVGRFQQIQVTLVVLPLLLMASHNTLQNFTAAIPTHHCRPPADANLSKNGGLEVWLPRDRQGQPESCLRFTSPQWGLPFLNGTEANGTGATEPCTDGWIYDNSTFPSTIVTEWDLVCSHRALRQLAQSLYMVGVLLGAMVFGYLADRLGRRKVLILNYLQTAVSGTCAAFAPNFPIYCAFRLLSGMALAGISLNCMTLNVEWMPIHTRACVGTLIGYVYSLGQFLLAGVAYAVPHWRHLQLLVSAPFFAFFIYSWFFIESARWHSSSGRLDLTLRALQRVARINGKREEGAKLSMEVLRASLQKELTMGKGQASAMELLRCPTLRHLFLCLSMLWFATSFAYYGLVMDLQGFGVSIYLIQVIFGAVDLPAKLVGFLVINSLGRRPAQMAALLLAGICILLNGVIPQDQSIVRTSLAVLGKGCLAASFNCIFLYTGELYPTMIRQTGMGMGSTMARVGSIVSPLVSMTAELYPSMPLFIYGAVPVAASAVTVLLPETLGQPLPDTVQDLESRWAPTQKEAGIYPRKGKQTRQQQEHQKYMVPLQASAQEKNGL
# Test protocol: TP_TRANSPORTER: inhibition of PAH uptake in OAT1-expressing CHO cells
# Type: functional, cell-based
Quantity kind: IC50 (µM)
Number in µM, nothing else.

Request: Record lookup: for Solute carrier family 22 member 6 (Homo sapiens, UniProt Q4U2R8), what IC50 belongs to `N[C@@H](CSc1nc2ccccc2s1)C(=O)O` ?
Response: 9.9

---

# Measurement target: Solute carrier family 22 member 6 (Homo sapiens, UniProt Q4U2R8)
# Test protocol: TP_TRANSPORTER: inhibition of PAH uptake in OAT1-COS7 cells
# Assay type: functional, cell-based, COS-7
Quantity kind: pIC50
Note on pIC50: it is the negative log10 of concentration, concentration in mol/L.

Request: # query: pIC50 of entry `N[C@H](CS/C(Cl)=C/Cl)C(=O)O`
Response: 3.68

The measurements presented in this section are drawn from ChEMBL document CHEMBL2074104.
